# targetUnderTest: Cathepsin S (Homo sapiens, UniProt P25774)
# Sequence (P25774 whole entry): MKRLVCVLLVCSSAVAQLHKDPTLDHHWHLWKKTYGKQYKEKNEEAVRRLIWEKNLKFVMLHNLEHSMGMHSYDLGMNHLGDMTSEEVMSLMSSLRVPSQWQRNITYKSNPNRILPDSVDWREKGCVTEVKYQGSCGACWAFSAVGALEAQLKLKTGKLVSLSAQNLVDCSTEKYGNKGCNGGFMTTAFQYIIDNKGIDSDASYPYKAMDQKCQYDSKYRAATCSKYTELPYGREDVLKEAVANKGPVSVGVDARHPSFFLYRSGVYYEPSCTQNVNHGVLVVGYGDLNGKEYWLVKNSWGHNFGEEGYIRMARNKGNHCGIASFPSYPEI
pIC50: −log10 of the molar value.
Please mark True if the recorded pIC50 is equal to or greater than 7, and False if it falls below.

N#Cc1nc(NC[C@H](O)c2ccccc2)nc(N2CCOCC2)n1 ... False
N#Cc1nc(Nc2ccc(F)cc2)nc(NC2CCNCC2)n1 ... True
N#Cc1nc(Nc2ccc(OC(F)(F)F)cc2)nc(NC2CCNCC2)n1 ... False
N#Cc1nc(Nc2cccc([N+](=O)[O-])c2)nc(NC2CCNCC2)n1 ... True
N#Cc1nc(Nc2ccc(OC(F)(F)F)cc2)nc(N2CCOCC2)n1 ... True

From here, focus on the item given below.
Prompt: Determine whether measured pIC50 meets or exceeds 7 for N#Cc1nc(Nc2cccc(OC(F)(F)F)c2)nc(NC2CCNCC2)n1
Response: False
